biological target: UniProtKB P22894; test: MMP inhibition fluorimetric assay (pro-fluorescing peptide substrate), MMP-8; format: biochemical
Sequence (P22894 101-467, species assumed): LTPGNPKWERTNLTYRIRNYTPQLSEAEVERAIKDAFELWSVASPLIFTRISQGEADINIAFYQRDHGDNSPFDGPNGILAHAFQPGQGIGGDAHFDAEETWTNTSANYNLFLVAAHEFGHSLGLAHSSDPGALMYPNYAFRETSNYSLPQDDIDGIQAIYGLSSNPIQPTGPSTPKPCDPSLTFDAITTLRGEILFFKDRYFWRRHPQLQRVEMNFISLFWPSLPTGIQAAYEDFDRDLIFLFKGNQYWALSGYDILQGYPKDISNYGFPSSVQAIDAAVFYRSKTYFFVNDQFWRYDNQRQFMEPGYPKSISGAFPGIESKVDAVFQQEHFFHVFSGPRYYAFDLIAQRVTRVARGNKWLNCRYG
pIC50: −log10 of the molar value.
Cut-off 5 on pIC50, inclusive. At or above means 1 (yes); below means 0 (no).

# Smiles repr, Label class
records = [
    ("O=C1NC(=O)C(O)(CC(=O)c2ccc(-c3cccc(Cl)c3)cc2)C(=O)N1", "1 (yes)"),
    ("COc1ccc(C(=O)CC2(O)C(=O)NC(=O)NC2=O)cc1", "1 (yes)"),
    ("NC(=O)c1ccc(-c2ccc(C(=O)CC3(O)C(=O)NC(=O)NC3=O)cc2)cc1", "1 (yes)"),
    ("O=C1NC(=O)C(O)(CC(=O)c2ccc(-c3ccccc3)cc2)C(=O)N1", "1 (yes)"),
    ("O=C1NC(=O)C(O)(CC(=O)c2ccc([N+](=O)[O-])cc2)C(=O)N1", "0 (no)"),
    ("O=C1NC(=O)C(O)(CC(=O)c2ccccc2)C(=O)N1", "0 (no)"),
]

---

Listed here are compounds together with their documented IC50.
molecular target: UniProt:P08253
Sequence (P08253 110-660): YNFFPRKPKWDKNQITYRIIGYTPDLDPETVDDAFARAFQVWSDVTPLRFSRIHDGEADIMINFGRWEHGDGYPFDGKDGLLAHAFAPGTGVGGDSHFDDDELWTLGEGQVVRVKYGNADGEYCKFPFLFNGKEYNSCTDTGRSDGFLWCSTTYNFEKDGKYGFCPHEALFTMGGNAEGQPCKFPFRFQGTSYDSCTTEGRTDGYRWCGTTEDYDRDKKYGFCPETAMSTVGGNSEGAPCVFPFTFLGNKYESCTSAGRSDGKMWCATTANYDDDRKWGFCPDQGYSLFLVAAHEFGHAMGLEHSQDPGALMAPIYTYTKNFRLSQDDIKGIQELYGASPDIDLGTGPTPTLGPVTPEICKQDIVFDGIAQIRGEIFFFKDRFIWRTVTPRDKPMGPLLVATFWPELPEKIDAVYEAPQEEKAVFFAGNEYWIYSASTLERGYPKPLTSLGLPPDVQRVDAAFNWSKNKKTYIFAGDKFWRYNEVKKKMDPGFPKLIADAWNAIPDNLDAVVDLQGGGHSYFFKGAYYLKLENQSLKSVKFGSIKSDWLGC

# Smiles repr, IC50 / µM
data = [
    ("NC(=O)c1ccc(-c2ccc(C(=O)CC3(O)C(=O)NC(=O)NC3=O)cc2)cc1", 0.0871),
    ("O=C1NC(=O)C(O)(CC(=O)c2ccc(C(F)(F)F)cc2)C(=O)N1", 38.9),
    ("COc1ccc(C(=O)CC2(O)C(=O)NC(=O)NC2=O)cc1", 21.4),
    ("O=C1NC(=O)C(O)(CC(=O)c2ccc(-c3cccc(Cl)c3)cc2)C(=O)N1", 60.3),
    ("O=C1NC(=O)C(O)(CC(=O)c2ccc(-c3ccccc3)cc2)C(=O)N1", 0.182),
]

---

A set of compounds tested on MMP-9 (Homo sapiens), with measured log10 of IC50:
Attribute measured: log10 of IC50 (log10 of the value in µM)

# Smiles repr, Study system, log10 of IC50
records = [
    ("O=C1NC(=O)C(O)(CC(=O)c2ccc(-c3ccccc3)cc2)C(=O)N1", "MMP-9 (Homo sapiens)", -0.29),
    ("COc1ccc(C(=O)CC2(O)C(=O)NC(=O)NC2=O)cc1", "MMP-9 (Homo sapiens)", 1.11),
    ("O=C1NC(=O)C(O)(CC(=O)c2ccc(-c3cccc(Cl)c3)cc2)C(=O)N1", "MMP-9 (Homo sapiens)", 1.30),
    ("NC(=O)c1ccc(-c2ccc(C(=O)CC3(O)C(=O)NC(=O)NC3=O)cc2)cc1", "MMP-9 (Homo sapiens)", 0.26),
    ("O=C1NC(=O)C(O)(CC(=O)c2ccccc2)C(=O)N1", "MMP-9 (Homo sapiens)", 1.65),
]

---

Listed here are molecules together with their documented inhibition at 100 µM.
target: UniProt:P08253; assay: MMP inhibition fluorimetric assay (pro-fluorescing peptide substrate), MMP-2; assay type: biochemical
Attribute measured: inhibition at 100 µM (%)

# Smiles repr, Endpoint result
records = [
    ("O=C1NC(=O)C(O)(CC(=O)c2ccc([N+](=O)[O-])cc2)C(=O)N1", 0),
    ("O=c1[nH]c(=O)c2cc(-c3ccc(C(F)(F)F)cc3)nnc2[nH]1", 12),
    ("O=c1[nH]c(=O)c2cc(-c3ccccc3)nnc2[nH]1", 0),
    ("O=C1NC(=O)C(O)(CC(=O)c2ccccc2)C(=O)N1", 0),
]

---

Listed here are molecules together with their documented inhibition at 100 µM.
Target: MMP-9 (Homo sapiens, UniProt P14780)
Sequence (P14780 94-707, species assumed): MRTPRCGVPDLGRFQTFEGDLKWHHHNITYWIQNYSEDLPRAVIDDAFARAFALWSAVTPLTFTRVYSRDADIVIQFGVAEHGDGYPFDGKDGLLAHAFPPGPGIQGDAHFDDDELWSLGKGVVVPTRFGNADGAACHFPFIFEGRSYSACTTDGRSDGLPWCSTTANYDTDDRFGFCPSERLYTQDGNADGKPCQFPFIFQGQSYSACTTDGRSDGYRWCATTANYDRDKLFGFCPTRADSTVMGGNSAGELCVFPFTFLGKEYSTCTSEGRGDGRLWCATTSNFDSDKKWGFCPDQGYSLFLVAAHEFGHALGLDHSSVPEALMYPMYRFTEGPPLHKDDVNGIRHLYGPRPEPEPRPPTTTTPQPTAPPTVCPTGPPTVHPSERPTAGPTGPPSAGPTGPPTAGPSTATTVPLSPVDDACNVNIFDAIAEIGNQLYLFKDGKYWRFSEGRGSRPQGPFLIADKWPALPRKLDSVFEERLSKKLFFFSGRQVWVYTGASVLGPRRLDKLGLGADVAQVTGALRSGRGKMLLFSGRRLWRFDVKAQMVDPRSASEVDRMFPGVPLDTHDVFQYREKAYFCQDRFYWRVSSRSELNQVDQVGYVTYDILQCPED
Test: MMP inhibition fluorimetric assay (pro-fluorescing peptide substrate), MMP-9
Type: biochemical
Procedure: Inhibitory activities were determined by a fluorimetric assay, where a pro-fluorescing peptide was used as substrate of MMP, and the fluorogenic activity of its cleavage product was measured after co-incubation with test compounds.

# Smiles repr, inhibition at 100 µM / %
data = [
    ("O=C1NC(=O)C(O)(CC(=O)c2ccc(C(F)(F)F)cc2)C(=O)N1", 51),
    ("O=C1NC(=O)C(O)(CC(=O)c2ccc([N+](=O)[O-])cc2)C(=O)N1", 8),
    ("O=c1[nH]c(=O)c2cc(-c3ccccc3)nnc2[nH]1", 5),
    ("O=c1[nH]c(=O)c2cc(-c3ccc(C(F)(F)F)cc3)nnc2[nH]1", 27),
]
